Source: patent US20210230570

Task for the reader: assign each of the following proteins its reported KM (Catalytic activity of FIXa variants).
- subject_of_test: Factor X, P00742
- Sequence (P00742 whole entry, looked up): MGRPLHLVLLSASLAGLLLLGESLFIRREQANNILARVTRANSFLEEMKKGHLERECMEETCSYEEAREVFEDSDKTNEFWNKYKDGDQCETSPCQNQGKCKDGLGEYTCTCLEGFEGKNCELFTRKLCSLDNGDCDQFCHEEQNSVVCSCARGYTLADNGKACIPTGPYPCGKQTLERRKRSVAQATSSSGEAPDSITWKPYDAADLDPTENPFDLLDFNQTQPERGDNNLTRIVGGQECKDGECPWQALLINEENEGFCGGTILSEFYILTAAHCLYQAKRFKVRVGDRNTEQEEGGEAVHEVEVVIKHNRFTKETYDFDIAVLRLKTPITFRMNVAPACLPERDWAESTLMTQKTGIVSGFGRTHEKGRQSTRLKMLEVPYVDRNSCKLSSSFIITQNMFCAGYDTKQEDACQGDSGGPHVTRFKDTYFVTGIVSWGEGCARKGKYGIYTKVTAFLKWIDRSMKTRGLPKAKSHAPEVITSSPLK
The figure you give is taken to be in nM; do not add the unit.

// query Which KM (Catalytic activity of FIXa variants) value is on record for FIXa-D203N/F205T/R338A (protein) chain 1: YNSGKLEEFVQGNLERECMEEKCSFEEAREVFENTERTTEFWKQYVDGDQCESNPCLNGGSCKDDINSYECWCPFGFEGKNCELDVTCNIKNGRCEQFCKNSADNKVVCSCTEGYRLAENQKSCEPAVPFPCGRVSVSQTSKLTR chain 2: VVGGEDAKPGQFPWQVVLNGKVNATCGGSIVNEKWIVTAAHCVETGVKITVVAGEHNIEETEHTEQKRNVIRIIPHHNYNAAINKYNHDIALLELDEPLVLNSYVTPICIADKEYTNIFLKFGSGYVSGWGRVFHKGRSALVLQYLRVPLVDRATCLASTKFTIYNNMFCAGFHEGGRDSCQGDSGGPHVTEVEGTSFLTGIISWGEECAMKGKYGIYTKVSRYVNWIKEKTKLT ?
// result 38.5

// query Which KM (Catalytic activity of FIXa variants) value is on record for FIXa-R318Y/R338E/R403E (protein) chain 1: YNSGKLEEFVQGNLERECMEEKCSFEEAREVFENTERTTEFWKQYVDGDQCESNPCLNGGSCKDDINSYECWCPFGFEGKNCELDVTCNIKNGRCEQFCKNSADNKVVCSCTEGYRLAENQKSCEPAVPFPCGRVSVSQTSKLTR chain 2: VVGGEDAKPGQFPWQVVLNGKVDAFCGGSIVNEKWIVTAAHCVETGVKITVVAGEHNIEETEHTEQKRNVIRIIPHHNYNAAINKYNHDIALLELDEPLVLNSYVTPICIADKEYTNIFLKFGSGYVSGWGRVFHKGYSALVLQYLRVPLVDRATCLESTKFTIYNNMFCAGFHEGGRDSCQGDSGGPHVTEVEGTSFLTGIISWGEECAMKGKYGIYTKVSEYVNWIKEKTKLT ?
// result 53.7

// query Which KM (Catalytic activity of FIXa variants) value is on record for FIXa-K293E/R338E/R403E (protein) chain 1: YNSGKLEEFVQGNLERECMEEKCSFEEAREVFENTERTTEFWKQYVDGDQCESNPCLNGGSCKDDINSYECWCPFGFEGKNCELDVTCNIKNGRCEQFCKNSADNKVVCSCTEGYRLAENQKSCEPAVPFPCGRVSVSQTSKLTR chain 2: VVGGEDAKPGQFPWQVVLNGKVDAFCGGSIVNEKWIVTAAHCVETGVKITVVAGEHNIEETEHTEQKRNVIRIIPHHNYNAAINKYNHDIALLELDEPLVLNSYVTPICIADEEYTNIFLKFGSGYVSGWGRVFHKGRSALVLQYLRVPLVDRATCLESTKFTIYNNMFCAGFHEGGRDSCQGDSGGPHVTEVEGTSFLTGIISWGEECAMKGKYGIYTKVSEYVNWIKEKTKLT ?
// result 50

// query Which KM (Catalytic activity of FIXa variants) value is on record for FIXa-Y155F/R318Y/R338E/R403E/E410N (protein) chain 1: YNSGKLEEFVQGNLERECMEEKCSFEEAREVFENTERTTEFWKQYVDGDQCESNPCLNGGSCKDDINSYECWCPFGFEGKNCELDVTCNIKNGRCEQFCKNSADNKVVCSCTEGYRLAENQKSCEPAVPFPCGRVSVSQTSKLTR chain 2: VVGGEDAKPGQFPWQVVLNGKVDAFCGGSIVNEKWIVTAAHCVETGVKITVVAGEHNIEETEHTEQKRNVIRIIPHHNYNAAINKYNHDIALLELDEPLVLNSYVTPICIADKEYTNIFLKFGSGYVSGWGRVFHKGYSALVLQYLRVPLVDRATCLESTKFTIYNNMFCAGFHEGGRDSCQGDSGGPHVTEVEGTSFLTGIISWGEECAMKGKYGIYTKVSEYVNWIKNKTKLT ?
// result 30.4

// query Which KM (Catalytic activity of FIXa variants) value is on record for FIXa-R318Y/R403E/E410N (protein) chain 1: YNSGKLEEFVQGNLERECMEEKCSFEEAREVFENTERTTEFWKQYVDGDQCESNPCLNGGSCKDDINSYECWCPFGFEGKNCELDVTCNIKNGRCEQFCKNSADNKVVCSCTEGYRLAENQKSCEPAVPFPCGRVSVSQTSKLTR chain 2: VVGGEDAKPGQFPWQVVLNGKVDAFCGGSIVNEKWIVTAAHCVETGVKITVVAGEHNIEETEHTEQKRNVIRIIPHHNYNAAINKYNHDIALLELDEPLVLNSYVTPICIADKEYTNIFLKFGSGYVSGWGRVFHKGYSALVLQYLRVPLVDRATCLRSTKFTIYNNMFCAGFHEGGRDSCQGDSGGPHVTEVEGTSFLTGIISWGEECAMKGKYGIYTKVSEYVNWIKNKTKLT ?
// result 88.3

// query Which KM (Catalytic activity of FIXa variants) value is on record for FIXa-D203N/F205T/R338E (protein) chain 1: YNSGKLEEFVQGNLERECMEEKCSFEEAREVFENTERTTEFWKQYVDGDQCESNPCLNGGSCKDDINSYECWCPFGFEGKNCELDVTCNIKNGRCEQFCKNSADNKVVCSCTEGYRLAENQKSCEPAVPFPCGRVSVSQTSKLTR chain 2: VVGGEDAKPGQFPWQVVLNGKVNATCGGSIVNEKWIVTAAHCVETGVKITVVAGEHNIEETEHTEQKRNVIRIIPHHNYNAAINKYNHDIALLELDEPLVLNSYVTPICIADKEYTNIFLKFGSGYVSGWGRVFHKGRSALVLQYLRVPLVDRATCLESTKFTIYNNMFCAGFHEGGRDSCQGDSGGPHVTEVEGTSFLTGIISWGEECAMKGKYGIYTKVSRYVNWIKEKTKLT ?
// result 24.1

// query Which KM (Catalytic activity of FIXa variants) value is on record for FIXa-D104N/K106S/R318Y/R338E/R403E/E410N (protein) chain 1: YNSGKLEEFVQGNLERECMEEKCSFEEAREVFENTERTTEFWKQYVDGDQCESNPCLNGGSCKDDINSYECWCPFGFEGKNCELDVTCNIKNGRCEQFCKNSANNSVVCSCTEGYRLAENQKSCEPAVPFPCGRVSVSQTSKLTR chain 2: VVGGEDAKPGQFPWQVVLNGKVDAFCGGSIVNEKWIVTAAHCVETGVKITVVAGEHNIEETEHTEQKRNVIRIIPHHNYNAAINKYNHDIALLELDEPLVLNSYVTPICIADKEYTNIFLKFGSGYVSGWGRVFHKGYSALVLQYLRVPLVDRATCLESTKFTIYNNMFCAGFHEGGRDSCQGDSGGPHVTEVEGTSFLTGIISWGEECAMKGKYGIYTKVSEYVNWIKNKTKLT ?
// result 38.5

// query Which KM (Catalytic activity of FIXa variants) value is on record for FIXa-D203N/F205T/E410N (protein) chain 1: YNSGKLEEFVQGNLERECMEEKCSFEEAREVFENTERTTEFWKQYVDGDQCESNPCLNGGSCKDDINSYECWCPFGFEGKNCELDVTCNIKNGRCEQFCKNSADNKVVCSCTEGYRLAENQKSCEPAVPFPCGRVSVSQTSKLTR chain 2: VVGGEDAKPGQFPWQVVLNGKVNATCGGSIVNEKWIVTAAHCVETGVKITVVAGEHNIEETEHTEQKRNVIRIIPHHNYNAAINKYNHDIALLELDEPLVLNSYVTPICIADKEYTNIFLKFGSGYVSGWGRVFHKGRSALVLQYLRVPLVDRATCLRSTKFTIYNNMFCAGFHEGGRDSCQGDSGGPHVTEVEGTSFLTGIISWGEECAMKGKYGIYTKVSRYVNWIKNKTKLT ?
// result 45.5
